Tested on: Staphylococcus haemolyticus 105
Procedure text: MIC, standard broth micro-dilution assay, SH 105
Format: cell-based
Description: The antibacterial efficacy of the present compounds is illustrated by Table III. The minimal inhibitory concentrations (MICs) were determined using a standard broth micro-dilution assay.
Observed property: minimal inhibitory concentration (MIC), SH 105
One number for each entry.

Sample answers from the record:
Compound | Endpoint value
CC(C)CCC(=O)N[C@H]1C(=O)N[C@@H](CC(N)=O)C(=O)N[C@H]2C(=O)N[C@H]3C(=O)NC(C(=O)N[C@H](C(=O)O)c4cc(O)cc(O)c4-c4cc3ccc4O)[C@H](OC3CC(C)(N)C(O)C(C)O3)c3ccc(c(Cl)c3)Oc3cc2cc(c3OC2OC(CO)C(O)C(O)C2OC2CC(C)(N)C(O)C(C)O2)Oc2ccc(cc2Cl)[C@H]1O (stereo partly drawn) [Example 4] | 0.25
CC(C)CC(NC(=O)OC(C)(C)C)C(=O)NC1C(=O)NC(CC(N)=O)C(=O)NC2C(=O)NC3C(=O)NC(C(=O)NC(C(=O)O)c4cc(O)cc(O)c4-c4cc3ccc4O)C(OC3CC(C)(N)C(O)C(C)O3)c3ccc(c(Cl)c3)Oc3cc2cc(c3OC2OC(CO)C(O)C(O)C2OC2CC(C)(NCc3ccc(-c4ccccc4)cc3)C(O)C(C)O2)Oc2ccc(cc2Cl)C1O (stereo not drawn) [Example 18] | 1
CC1OC(OC2C(Oc3c4cc5cc3Oc3ccc(cc3Cl)[C@@H](O)[C@@H](NC(=O)c3ccc(-c6ccccc6)cc3)C(=O)N[C@@H](CC(N)=O)C(=O)N[C@H]5C(=O)N[C@H]3C(=O)NC(C(=O)N[C@H](C(=O)O)c5cc(O)cc(O)c5-c5cc3ccc5O)[C@H](OC3CC(C)(N)C(O)C(C)O3)c3ccc(c(Cl)c3)O4)OC(CO)C(O)C2O)CC(C)(N)C1O (stereo partly drawn) [Example 1, N^1-(p-phenylbenzoyl)desleucylA82846B] | 2
CC1OC(OC2c3ccc(c(Cl)c3)Oc3cc4cc(c3OC3OC(CO)C(O)C(O)C3OC3CC(C)(NCc5ccc(-c6ccccc6)cc5)C(O)C(C)O3)Oc3ccc(cc3Cl)C(O)C(NC(=O)C(Cc3ccc(Cl)cc3)NC(=O)OC(C)(C)C)C(=O)NC(CC(N)=O)C(=O)NC4C(=O)NC3C(=O)NC2C(=O)NC(C(=O)O)c2cc(O)cc(O)c2-c2cc3ccc2O)CC(C)(N)C1O (stereo not drawn) [Example 28] | 2
CC1OC(OC2c3ccc(c(Cl)c3)Oc3cc4cc(c3OC3OC(CO)C(O)C(O)C3OC3CC(C)(NCc5ccc(-c6ccccc6)cc5)C(O)C(C)O3)Oc3ccc(cc3Cl)C(O)C(NC(=O)C(N)Cc3ccc(Cl)cc3)C(=O)NC(CC(N)=O)C(=O)NC4C(=O)NC3C(=O)NC2C(=O)NC(C(=O)O)c2cc(O)cc(O)c2-c2cc3ccc2O)CC(C)(N)C1O (stereo not drawn) [Example 22] | 2

The record that follows has no minimal inhibitory concentration (MIC), SH 105 shown yet.
Problem: Please report the recorded minimal inhibitory concentration (MIC), SH 105 for CCCCCCNC(CC(C)C)C(=O)NC1C(=O)NC(CC(N)=O)C(=O)NC2C(=O)NC3C(=O)NC(C(=O)NC(C(=O)O)c4cc(O)cc(O)c4-c4cc3ccc4O)C(OC3CC(C)(N)C(O)C(C)O3)c3ccc(c(Cl)c3)Oc3cc2cc(c3OC2OC(CO)C(O)C(O)C2OC2CC(C)(N)C(O)C(C)O2)Oc2ccc(cc2Cl)C1O (stereo not drawn) [Example 39] .
Solution: 0.5
